Assay: Bioavailability in orally dosed dog
Type: ADME, organism-based, Canis lupus familiaris
Conditions: in vivo, po
assay-metric: bioavailability

Qu. What value of measured bioavailability is listed for C[C@@H](O[C@H]1OCCN(Cc2n[nH]c(=O)[nH]2)[C@H]1c1ccc(F)cc1)c1cc(C(F)(F)F)cc(C(F)(F)F)c1 [APREPITANT] ?
Ans. 40%

###

Quick list: IC50 per entry.
Molecular target: Substance-P receptor (Homo sapiens, UniProt P25103)
Sequence (P25103 whole entry): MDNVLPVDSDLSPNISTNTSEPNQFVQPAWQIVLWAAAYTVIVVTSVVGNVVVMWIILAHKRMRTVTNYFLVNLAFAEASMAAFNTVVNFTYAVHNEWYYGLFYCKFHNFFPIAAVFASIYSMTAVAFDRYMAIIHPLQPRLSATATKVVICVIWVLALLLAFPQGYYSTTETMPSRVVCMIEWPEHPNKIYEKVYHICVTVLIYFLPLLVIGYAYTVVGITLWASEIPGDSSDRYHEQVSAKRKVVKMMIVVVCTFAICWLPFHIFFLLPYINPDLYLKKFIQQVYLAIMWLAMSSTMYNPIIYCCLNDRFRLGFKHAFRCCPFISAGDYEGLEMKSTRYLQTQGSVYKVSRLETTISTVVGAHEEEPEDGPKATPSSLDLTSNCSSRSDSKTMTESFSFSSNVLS

>>> observed_measurement("CN(C)C(=O)N[C@@H]1CC[C@H](OCc2cc(C(F)(F)F)cc(C(F)(F)F)c2)[C@H]1c1ccccc1 (racemic)")
"5 nM"

Qu. Identify the measured IC50 of NC(=O)CN[C@H]1CC[C@@H](OCc2cc(C(F)(F)F)cc(C(F)(F)F)c2)[C@@H]1c1ccccc1 (relative stereo) for Substance-P receptor (Homo sapiens, UniProt P25103).
Ans. 45 nM

Qu. Identify the measured IC50 of N[C@H]1CC[C@@H](OCc2cc(C(F)(F)F)cc(C(F)(F)F)c2)[C@@H]1c1ccccc1 (relative stereo) for Substance-P receptor (Homo sapiens, UniProt P25103).
Ans. 100 nM

###

Assay: physchem
Details: sodium acetate/acetic acid buffer, pH 5
Param threshold (200 µg/mL) applies to solubility; output Y when value >= threshold, N when value < threshold.

>>> classification("CN(C[C@@H]1CCC(=O)N1)[C@@H]1CC[C@H](OCc2cc(C(F)(F)F)cc(C(F)(F)F)c2)[C@H]1c1ccccc1")
"Y"
>>> classification("NC(=O)CNC[C@@H]1CC[C@H](OCc2cc(C(F)(F)F)cc(C(F)(F)F)c2)[C@H]1c1ccccc1 (racemic)")
"Y"
>>> classification("NC(=O)CN[C@H]1CC[C@H](OCc2cc(C(F)(F)F)cc(C(F)(F)F)c2)[C@@H]1c1ccccc1 (racemic)")
"Y"
>>> classification("CN(Cc1n[nH]c(=O)[nH]1)C[C@H]1CC[C@H](OCc2cc(C(F)(F)F)cc(C(F)(F)F)c2)[C@@H]1c1ccccc1 (racemic)")
"N"
>>> classification("CN(CC[C@@H]1CC[C@H](OCc2cc(C(F)(F)F)cc(C(F)(F)F)c2)[C@H]1c1ccccc1)Cc1n[nH]c(=O)[nH]1 (racemic)")
"N"

Please look at the following compound next.
Qu. Does solubility meet or surpass 200 µg/mL for NC(=O)CN[C@@H]1CC[C@H](OCc2cc(C(F)(F)F)cc(C(F)(F)F)c2)[C@H]1c1ccccc1 (racemic) ?
Ans. Y

###

Experiment: Bioavailability in orally dosed rat
Assay type: ADME, organism-based
Settings: in vivo, po
assay-metric: bioavailability (%)
Report as a plain number; the unit % is understood.

Qu. What value of measured bioavailability is listed for C[C@@H](O[C@H]1OCCN(Cc2n[nH]c(=O)[nH]2)[C@H]1c1ccc(F)cc1)c1cc(C(F)(F)F)cc(C(F)(F)F)c1 [APREPITANT] ?
Ans. 53

###

Quick list: IC50 per entry.
Biological target: Substance-P receptor (Homo sapiens, UniProt P25103)

Here is how some molecules turned out for IC50.
>>> observed_measurement("O=C1CC[C@@H](CN[C@H]2CC[C@@H](OCc3cc(C(F)(F)F)cc(C(F)(F)F)c3)[C@@H]2c2ccccc2)N1")
"260 nM"
>>> observed_measurement("O=C(N[C@H]1CC[C@H](OCc2cc(C(F)(F)F)cc(C(F)(F)F)c2)[C@@H]1c1ccccc1)OCc1ccccc1 (racemic)")
"300 nM"
>>> observed_measurement("N[C@@H]1CC[C@H](OCc2cc(C(F)(F)F)cc(C(F)(F)F)c2)[C@H]1c1ccccc1 (relative stereo)")
"2.3 nM"

Qu. Identify the measured IC50 of CNC[C@@H]1CC[C@H](OCc2cc(C(F)(F)F)cc(C(F)(F)F)c2)[C@H]1c1ccccc1 (racemic) for Substance-P receptor (Homo sapiens, UniProt P25103).
Ans. 1.9 nM
